- assayed_target: human FPR2 (Homo sapiens (Human), UniProt P25090)
- Sequence (P25090 whole entry): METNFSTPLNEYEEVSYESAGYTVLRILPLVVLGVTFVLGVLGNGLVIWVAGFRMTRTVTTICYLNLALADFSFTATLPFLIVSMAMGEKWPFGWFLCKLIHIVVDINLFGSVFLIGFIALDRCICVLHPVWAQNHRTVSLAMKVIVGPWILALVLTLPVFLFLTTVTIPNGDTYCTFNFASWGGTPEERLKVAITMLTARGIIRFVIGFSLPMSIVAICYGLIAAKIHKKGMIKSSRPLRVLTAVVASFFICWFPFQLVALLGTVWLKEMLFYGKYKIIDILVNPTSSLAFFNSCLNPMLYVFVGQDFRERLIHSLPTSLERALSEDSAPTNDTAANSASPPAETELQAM
- assay_comment: FPR2 cyclic adenosine monophosphate (cAMP) assay
- Assay type: cell-based
- condition_info: CHO cells overexpressing human FPR2; forskolin 5 μM; inhibition of cAMP production; read-out: hFPR2 cAMP2 EC50
Items are presented alongside their recorded EC50.

compound | EC50 / nM
O=C(Nc1ccc(Cl)cc1)N[C@@H]1CCCN(c2ccc(N3CCC4(CCCO4)CC3)cc2)C1=O | 15
COCC1CCCCN1c1ccc(N2CCC[C@@H](NC(=O)Nc3ccc(C(F)(F)F)cc3)C2=O)cc1 (stereo partly shown) | 2.1
O=C(Nc1ccc(C(F)(F)F)cc1)N[C@@H]1CCCN(c2ccc(N3CCCC(CO)C3)nc2)C1=O (stereo partly shown) | 1.8
O=C(Nc1ccc(C(F)(F)F)cc1)N[C@@H]1CCCN(c2ccc(N3CCCC(F)(F)C3)cc2)C1=O | 2.4

---

- assayed_target: human FPR2 (Homo sapiens (Human), UniProt P25090)
- assay_comment: FPR2 cyclic adenosine monophosphate (cAMP) assay
- Format: cell-based
- condition_info: CHO cells overexpressing human FPR2; forskolin 5 μM; inhibition of cAMP production; read-out: hFPR2 cAMP2 EC50
pEC50: −log10 of the molar value.
Items are presented alongside their recorded pEC50.
assay_metric: pEC50

compound | result_value
O=C(Nc1ccc(C(F)(F)F)cc1)N[C@H]1CCCN(c2ccc(N3CC4(COC4)C3)cc2)C1=O [Example 9] | 6.27
COCC1CCCCN1c1ccc(N2CCC[C@@H](NC(=O)Nc3ccc(C(F)(F)F)nc3)C2=O)cc1 (stereo partly shown) [Example 15] | 7.49
O=C(Nc1ccc(C(F)(F)F)cc1)N[C@@H]1CCCN(c2ccc(N3C[C@H]4CC[C@@H](C3)O4)nc2)C1=O [Example 104] | 7.74
CN(C)C1CCCN(c2ccc(N3CCC[C@@H](NC(=O)Nc4ccc(C(F)(F)F)cc4)C3=O)cc2)C1 (stereo partly shown) [Example 77] | 9.74
O=C(Nc1ccc(C(F)(F)F)cc1)N[C@@H]1CCCN(c2ccc(N3CCCCC3)cc2)C1=O [Example 45] | 8.52
O=C(Nc1ccc(Cl)cc1)N[C@@H]1CCCN(c2ccc(N3C[C@H]4COC[C@H]4C3)cc2)C1=O [Example 95] | 8.60
O=C(Nc1ccc(C(F)(F)F)nc1)N[C@@H]1CCCN(c2ccc(N3CCCCC3=O)cc2F)C1=O [Example 50] | 6.48

---

- assayed_target: human FPR2 (Homo sapiens (Human), UniProt P25090)
- assay_comment: FPR2 cyclic adenosine monophosphate (cAMP) assay
- Type: cell-based
- condition_info: CHO cells overexpressing human FPR2; forskolin 5 μM; inhibition of cAMP production; read-out: hFPR2 cAMP2 EC50
- Experimental: FPR2 and FPR1 Cyclic Adenosine Monophosphate (cAMP) Assays. […] The level of intracellular cAMP was determined using the HTRF HiRange cAMP assay reagent kit (Cisbio) according to manufacturer's instruction. […] After a 1-h room temperature incubation, time-resolved fluorescence intensity was measured using the Envision (Perkin-Elmer) at 400 nm excitation and dual emission at 590 nm and 665 nm. […]
pEC50: −log10 of the molar value.
Items are presented alongside their recorded pEC50.

compound | pEC50
CC(=O)N[C@@H]1CCN(c2ccc(N3CCC[C@@H](NC(=O)Nc4ccc(C(F)(F)F)cc4)C3=O)cc2)C1 | 7.85
CS(=O)(=O)N1CCN(c2ccc(N3CCC[C@@H](NC(=O)Nc4ccc(C(F)(F)F)cc4)C3=O)cc2)CC1 | 6.40
O=C(Nc1ccc(C(F)(F)F)cc1)N[C@@H]1CCCN(c2ccc(N3CCCCC3=O)cc2)C1=O | 7.55
CN(C)C1CCN(c2ccc(N3CCC[C@@H](NC(=O)Nc4ccc(Cl)cc4F)C3=O)c(F)c2)C1 (stereo partly drawn) | 9.51
O=C(Nc1ccc(Cl)cc1)N[C@@H]1CCCN(c2ccc(N3C[C@H]4CC[C@@H](C3)O4)cc2F)C1=O | 8.59
COC[C@@H]1CCCN1c1ccc(N2CCC[C@@H](NC(=O)Nc3ccc(Cl)cc3)C2=O)cc1 | 8.43
O=C(Nc1ccc(C(F)(F)F)cn1)N[C@@H]1CCCN(c2ccc(N3CC4(COC4)C3)cc2)C1=O | 6.42
O=C(Nc1ccc(C(F)(F)F)cc1)N[C@@H]1CCCN(c2ccc(N3CCOCC3)nc2)C1=O | 7.51
CN(C)C1CCN(c2ccc(N3CCC[C@@H](NC(=O)Nc4ccc(Cl)cc4)C3=O)cc2F)C1 (stereo partly drawn) | 9.41
